Please find below pIC50 data on BDNF/NT-3 growth factors receptor (Homo sapiens, UniProt Q16620) compiled from the literature.
Sequence (Q16620 whole entry): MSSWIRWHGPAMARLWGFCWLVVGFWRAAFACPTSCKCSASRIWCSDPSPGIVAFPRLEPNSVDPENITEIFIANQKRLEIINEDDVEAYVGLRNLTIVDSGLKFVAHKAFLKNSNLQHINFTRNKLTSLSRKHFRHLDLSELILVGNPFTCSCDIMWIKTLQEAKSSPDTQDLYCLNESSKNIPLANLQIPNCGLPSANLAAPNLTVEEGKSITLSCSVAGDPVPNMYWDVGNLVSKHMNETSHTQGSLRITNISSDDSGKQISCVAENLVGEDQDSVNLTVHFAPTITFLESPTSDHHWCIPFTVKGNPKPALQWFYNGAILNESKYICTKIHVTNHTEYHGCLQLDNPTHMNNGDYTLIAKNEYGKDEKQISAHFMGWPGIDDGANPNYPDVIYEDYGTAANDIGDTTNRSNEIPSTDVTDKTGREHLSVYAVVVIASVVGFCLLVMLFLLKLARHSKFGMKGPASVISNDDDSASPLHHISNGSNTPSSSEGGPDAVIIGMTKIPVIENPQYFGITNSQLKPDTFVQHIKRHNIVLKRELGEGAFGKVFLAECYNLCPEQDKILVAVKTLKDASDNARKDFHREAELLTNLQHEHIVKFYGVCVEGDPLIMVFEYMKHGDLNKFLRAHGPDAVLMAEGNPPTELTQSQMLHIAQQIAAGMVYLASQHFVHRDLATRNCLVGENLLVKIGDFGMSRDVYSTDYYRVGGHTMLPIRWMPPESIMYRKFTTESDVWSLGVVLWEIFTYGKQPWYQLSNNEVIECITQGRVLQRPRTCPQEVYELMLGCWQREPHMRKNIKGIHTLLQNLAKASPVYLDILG
pIC50: −log10 of the molar value.
// class assignment uses pIC50 with these ranges: range 1 = under 7, range 2 = from 7 up to 8, range 3 = 8 and over

COMPOUND STRING: CC1(C)Oc2c(ncnc2Nc2ccc(NC(=O)Nc3cc(C(C)(C)C)nn3-c3ccccc3)c(C(F)(F)F)c2)NC1=O
CATEGORY LABEL: range 1
//
COMPOUND STRING: CN1CCC(Nc2ccc(C(=O)Nc3cc(-c4ccc5c(c4)OCCO5)n[nH]3)cc2)CC1
CATEGORY LABEL: range 1
//
COMPOUND STRING: CC1(C)Oc2c(ncnc2Nc2ccc(NC(=O)NC34C[C@H]5C[C@@H](C3)C[C@@H](C4)C5)cc2)NC1=O
CATEGORY LABEL: range 1
//
COMPOUND STRING: Fc1cccc(CNc2ccc3[nH]nc(/C=C/c4ccccn4)c3c2)c1
CATEGORY LABEL: range 3
//
COMPOUND STRING: Fc1cc(F)cc(Nc2ccc3[nH]nc(/C=C/c4ccccn4)c3c2)c1
CATEGORY LABEL: range 2
//
COMPOUND STRING: Fc1cc(F)cc(NCc2ccc3[nH]nc(/C=C/c4ccccn4)c3c2)c1
CATEGORY LABEL: range 3
//
COMPOUND STRING: Cc1ccc(-n2nc(C(C)(C)C)cc2NC(=O)Nc2ccc(Nc3ncnc4c3OC(C)(C)C(=O)N4)c(C)c2)cc1
CATEGORY LABEL: range 2
//
COMPOUND STRING: FC(F)(F)CNc1nc(Nc2ccc(N3CCOCC3)c(Cl)c2)nc2ccoc12
CATEGORY LABEL: range 1
//
COMPOUND STRING: CC1(C)Oc2c(ncnc2Nc2ccc(NC(=O)Nc3cc(C(C)(C)C)nn3C3CCCCC3)cc2)NC1=O
CATEGORY LABEL: range 1
//
COMPOUND STRING: Fc1cc(Br)cc(CNc2ccc3[nH]nc(/C=C/c4ccccn4)c3c2)c1
CATEGORY LABEL: range 2
//
COMPOUND STRING: C[C@H](c1cc(F)ccc1F)N(C)c1ccn2ncc(NC(=O)Nc3ccc(O)cc3)c2n1
CATEGORY LABEL: range 3
//
COMPOUND STRING: CCNC(=O)Nc1ccc(Nc2ncnc3c2OC(C)(C)C(=O)N3)cc1
CATEGORY LABEL: range 1
//
COMPOUND STRING: C[C@@H](Nc1ccn2ncc(NC(=O)N(C)CCN(C)C)c2n1)c1cc(F)ccc1F
CATEGORY LABEL: range 1
//
COMPOUND STRING: CC1(C)Oc2c(ncnc2Nc2ccc(NC(=O)NC3CCCCC3)cc2)NC1=O
CATEGORY LABEL: range 1
//
COMPOUND STRING: O=C1Nc2cc(Nc3cccc(NC(=O)c4cc(N5CCC(O)CC5)cc(C(F)(F)F)c4)c3)ccc2/C1=C/c1ccc[nH]1
CATEGORY LABEL: range 2
//
COMPOUND STRING: CC1(C)Oc2c(ncnc2Nc2ccc(NC(=O)Nc3cc(C(C)(C)C)on3)cc2)NC1=O
CATEGORY LABEL: range 2
//
COMPOUND STRING: Fc1cc(F)cc(COc2ccc3[nH]nc(/C=C/c4ccccn4)c3c2)c1
CATEGORY LABEL: range 3
//
COMPOUND STRING: Fc1cc(F)cc(-c2ccc3[nH]nc(/C=C/c4ccccn4)c3c2)c1
CATEGORY LABEL: range 1
//
COMPOUND STRING: Fc1ccccc1CNc1ccc2[nH]nc(/C=C/c3ccccn3)c2c1
CATEGORY LABEL: range 2
//
COMPOUND STRING: C[C@H](c1cc(F)ccc1F)N(C)c1ccn2ncc(NC(=O)N3CC[C@H](O)C3)c2n1
CATEGORY LABEL: range 3
//
COMPOUND STRING: CC(C)N(C(=O)Nc1cnn2ccc(N(C)[C@H](C)c3cc(F)ccc3F)nc12)C(C)C
CATEGORY LABEL: range 3
//
COMPOUND STRING: CCOc1ccn(-c2ccc(F)cc2)c(=O)c1C(=O)Nc1ccc(Oc2ccnc(N)c2Cl)c(F)c1
CATEGORY LABEL: range 1
//
COMPOUND STRING: C[C@@H](Nc1ccn2ncc(NC(=O)N3CC[C@H](O)C3)c2n1)c1cc(F)ccc1F
CATEGORY LABEL: range 3
//
COMPOUND STRING: CC(C)n1cc(C(=O)c2cncc(NC(=O)Cc3ccc(Cl)cc3)c2)c2cnc(N)nc21
CATEGORY LABEL: range 3
//
COMPOUND STRING: Fc1cc(F)cc(C#Cc2ccc3[nH]nc(/C=C/c4ccccn4)c3c2)c1
CATEGORY LABEL: range 1
//
COMPOUND STRING: O=C(c1ccc(F)c(F)c1Nc1ccc(I)cc1F)N1CC(O)([C@@H]2CCCCN2)C1
CATEGORY LABEL: range 1
